This collection of values is drawn from the METLIN SMRT retention time set (Domingo-Almenara et al. 2019).

# protocol: gradient 5% acetonitrile 3 min, to 50% in 2 min, to 85% in 15 min, held 3 min, 100 µL/min
# experimental-parameters: column: Zorbax Extend-C18 2.1 x 50 mm; eluents: water / acetonitrile, 0.1% formic acid
assay-metric: RP-LC retention time (s)

- CCCCOc1ccc(-c2cc3c4nnc(CCC(=O)NCCc5cccs5)n4ccn3n2)cc1: 943
- CS(=O)(=O)Nc1ccc(C2(C(=O)NCc3cccc(F)c3)CCCCC2)cc1: 887
- O=C(c1ccsc1)N1CCC(c2nncn2-c2ccccc2)CC1: 630
- Cc1nc(Nc2ccccc2)sc1C(=O)NCC1CC1: 800
- O=C(C1CCN(c2nc3ccc(-c4ccsc4)nc3s2)CC1)N1CCOCC1: 826

---

# protocol: gradient 5% acetonitrile 3 min, to 50% in 2 min, to 85% in 15 min, held 3 min, 100 µL/min
# experimental-parameters: column: Zorbax Extend-C18 2.1 x 50 mm; eluents: water / acetonitrile, 0.1% formic acid
assay-metric: RP-LC retention time (s)

Worked cases, RP-LC retention time given:
* CCOc1ccc(OCC)c(NS(=O)(=O)c2cc(-c3c(CC)noc3NC(C)=O)ccc2C)c1 | 932
* COc1ccc(NC(=O)CN2C(=O)c3ccccc3Sc3ncccc32)cc1 | 758
* NC(=O)Cc1ccc(NS(=O)(=O)/C=C/c2ccccc2)cc1 | 650
* COc1ccc(CNC(=O)c2nnn(Cc3nc(-c4ccc(C)cc4)oc3C)c2N)cc1OC | 935
* CC(=O)Nc1ccc(-c2nc(-c3cccc(-c4ccn[nH]4)c3)no2)cc1 | 790

I: COC(=O)c1cnn(-c2ccc(C)cc2)c1N
II: CC(C)c1ccc(-c2noc(N3CCC(C(=O)NC4CCCCC4)CC3)n2)cc1
Request: Exercise: compare I and II ; which one has the greater RP-LC retention time? Please respond with the label that marks your chosen entry.
Result: II
(II: 1180 s, I: 704 s)

---

# protocol: gradient 5% acetonitrile 3 min, to 50% in 2 min, to 85% in 15 min, held 3 min, 100 µL/min
# experimental-parameters: column: Zorbax Extend-C18 2.1 x 50 mm; eluents: water / acetonitrile, 0.1% formic acid
assay-metric: RP-LC retention time (s)

Previously resolved entries follow.
• Cc1nnc(NC(=O)COc2ccc3ccccc3c2)s1 = 742
• O=C(Cn1c(=O)cc(-c2nc(C3CC3)no2)c2ccccc21)Nc1cccc(F)c1 = 952
• CCCc1cc(N2CCN(C(=O)c3ccc4c(c3)OCO4)CC2)nc2nncn12 = 622
• CCOc1ccc(NC(=O)NCc2nc(-c3ccc(OCC)cc3)oc2C)cc1 = 656
• CCCC(=O)Nc1ccc(-c2cn3ccc(C)nc3n2)cc1 = 587
• COc1ccccc1CCc1nc(C2CC(=O)N(C3CCCCC3)C2)no1 (stereo not given) = 989

P: CC1=C(c2ccc(F)cc2)S(=O)(=O)N=C1N1CCCN(C(=O)c2sccc2C)CC1
Q: O=C(Cc1ccccc1)Nc1c(-c2ccccc2)nc2ccccn12
Request: Which gives the smaller RP-LC retention time number: P or Q ? Answer with the label corresponding to your selection.
Result: Q
(Q: 574 s, P: 830 s)

---

# protocol: gradient 5% acetonitrile 3 min, to 50% in 2 min, to 85% in 15 min, held 3 min, 100 µL/min
# experimental-parameters: column: Zorbax Extend-C18 2.1 x 50 mm; eluents: water / acetonitrile, 0.1% formic acid
assay-metric: RP-LC retention time (s)

Here are 2 compounds together with their reported answers.
* O=C(NC1CCCCC1)c1ccc2ccnc(N3CCN(c4ccccc4)CC3)c2c1 | 851
* O=C1C(OC2CCN(S(=O)(=O)c3ccccc3Cl)CC2)CCN1CC1CC1 (centres undefined) | 870

A: Cn1cc(-c2ccncc2)cc1C(=O)NCc1ccccc1C(F)(F)F
B: COc1ccc(Cc2noc(Cc3nnc(-c4cccc(Cl)c4)o3)n2)cc1
Request: Between these two entries, A and B , state which has the higher RP-LC retention time. Refer to your chosen item by its label in the answer.
Result: B
(B: 1010 s, A: 672 s)

---

# protocol: gradient 5% acetonitrile 3 min, to 50% in 2 min, to 85% in 15 min, held 3 min, 100 µL/min
# experimental-parameters: column: Zorbax Extend-C18 2.1 x 50 mm; eluents: water / acetonitrile, 0.1% formic acid
assay-metric: RP-LC retention time (s)

See these solved cases before continuing.
- CCCCOc1ccc(S(=O)(=O)Nc2ccc(-c3cn4ccc(C)nc4n3)cc2)cc1: 776
- CCc1cccc(-n2nnc(C(=O)NCCOC)c2-c2ccncc2)c1: 715
- COc1cccc(C(=O)NC(c2ccccc2)c2nnc(N3CCCC3)o2)c1 (centres undefined): 788
- O=C(Nc1ccccc1F)N1CCC(N2C(=O)C3(CCCCC3)C2c2ccccc2)CC1 (centres undefined): 940

P: Cc1cc(C)cc(C(=O)N2CCCC(C(=O)NCCC3=CCCCC3)C2)c1 (centres undefined)
Q: Cc1cc(C)c2c(N3CCCCC3)nc(C(=O)N3CCOCC3)nc2n1
Request: Out of P and Q , name the one with the higher RP-LC retention time. Which one? Tell me its label.
Result: P

---

# protocol: gradient 5% acetonitrile 3 min, to 50% in 2 min, to 85% in 15 min, held 3 min, 100 µL/min
# experimental-parameters: column: Zorbax Extend-C18 2.1 x 50 mm; eluents: water / acetonitrile, 0.1% formic acid
assay-metric: RP-LC retention time (s)

• O=C(NC1CC1)c1cc(-c2cccc(F)c2)ns1 = 882
• CCOC(=O)c1cc(S(=O)(=O)N2CCCC2C(=O)Nc2ccc3c(c2)OCO3)cn1C (centres undefined) = 876
• C=CCNC(=O)c1cn(-c2ccc(-c3nc(C4CC4)no3)cn2)cn1 = 788
• Cc1cnc(C(=O)NC2C[C@H]3CC[C@@H](C2)N3C(=O)c2ccc(C)s2)cn1 (some centres undefined) = 683
• O=C(COc1ccc(Cl)cc1Cl)Nc1nc(-c2ccccc2)cs1 = 1190
• Cn1nc(-c2nnc(-c3ccc(F)cc3)o2)c2c1CCN(S(=O)(=O)c1cc(F)ccc1F)C2 = 958
• COCc1nc2nccc(-c3ccccc3)n2n1 = 672

a: COc1cc2c(c(O)c1OC)-c1c(cc(OC)c(OC)c1OC)CC(C)C(C)C2 (centres undefined)
b: Cc1noc(CN2CCN(C3CCN(Cc4cc(C(F)(F)F)ccc4Cl)C3)C2=O)n1 (centres undefined)
Request: I need your help: which of the pair a , b has higher RP-LC retention time? Bench note: the answer is the label of the chosen record.
Result: a

---

# protocol: gradient 5% acetonitrile 3 min, to 50% in 2 min, to 85% in 15 min, held 3 min, 100 µL/min
# experimental-parameters: column: Zorbax Extend-C18 2.1 x 50 mm; eluents: water / acetonitrile, 0.1% formic acid
assay-metric: RP-LC retention time (s)

The following compounds have reported results that may help.
• COc1ccc(F)cc1S(=O)(=O)N1C[C@@H]2C[C@H](NC(=O)c3ccccc3)[C@H]1C2 = 661
• O=C(c1ccco1)N1CCC(O)(c2ccccc2)[C@H](N2CCCC2)C1 (some centres undefined) = 555
• CCCc1cc(N2CCN(c3ccccn3)CC2)n2ncc(-c3ccccc3)c2n1 = 886
• CCc1noc(NC(C)=O)c1-c1ccc(C)c(S(=O)(=O)Nc2cccc(C#N)c2)c1 = 776
• Cc1oc(-c2[nH]ncc2C(=O)N(C)C)cc1S(=O)(=O)Nc1cccc(C(F)(F)F)c1 = 763
• O=C1c2cccc([N+](=O)[O-])c2C(=O)N1c1nc(-c2ccccc2)cs1 = 958

a: CCc1c(C(=O)O)nnn1-c1cc(OC)cc(OC)c1
b: Fc1ccc(-c2nc(-c3cn(Cc4ccccc4)nn3)no2)cc1
Request: Sorting by RP-LC retention time in descending order, would a or b appear first? Your choice should be expressed through its label.
Result: b

---

# protocol: gradient 5% acetonitrile 3 min, to 50% in 2 min, to 85% in 15 min, held 3 min, 100 µL/min
# experimental-parameters: column: Zorbax Extend-C18 2.1 x 50 mm; eluents: water / acetonitrile, 0.1% formic acid
assay-metric: RP-LC retention time (s)

Please review the entries below; each comes with its answer.
- CCOc1cccc(-c2noc(Cn3c(=O)n(C(C)C)c(=O)c4ccccc43)n2)c1: 1190
- Cc1nn(CC(=O)N(C)Cc2ccccc2)c(=O)c2nc(-c3ccccc3)sc12: 942
- CCN1CCCn2cc(S(=O)(=O)Nc3ccccc3F)cc2C1=O: 687
- O=C(Cn1nc2c(Oc3cccc(F)c3)nccn2c1=O)Nc1ccc(F)cc1F: 835
- O=C(Nc1nc(-c2ccc(Cl)cc2)cs1)c1ccc(COc2ccccc2Cl)o1: 1310
- CC(=O)NCc1nc(-c2ccc3oc(-c4ccccc4)nc3c2)no1: 805
- O=c1c2nc(-c3ccc4c(c3)OCO4)cn2ccn1-c1cccc(F)c1: 785
- Cc1nc(CSc2nc3cc([N+](=O)[O-])ccc3s2)cs1: 916
- CCc1ccccc1NC(=O)C1CCN(c2nnc3ccccn23)CC1: 660
- CCc1cc(=O)n(CC(=O)Nc2ccc(OC)cc2)c(N)n1: 595

1: Cn1ncc2c(Nc3cccc(Cl)c3)nc(N3CCN(C4CCCCC4)CC3)nc21
2: Cc1ccc(Cl)cc1N1CCN(c2ncc(S(=O)(=O)c3ccccc3)c(N)n2)CC1
Request: Of the two listed items, which has the higher RP-LC retention time? First: 1 Second: 2 Give the chosen item's label as your response.
Result: 2
(2: 1250 s, 1: 751 s)

I: COc1ccc(-c2nc3cnccn3c2Nc2ccc3c(c2)OCO3)cc1OC
II: CCCc1noc(CN2N=C(C(=O)N3CCC(C)CC3)S(=O)(=O)c3ccc(C)cc32)n1
Request: Please compare: I and II . Report which one has the smaller RP-LC retention time value. In your reply, give the label of the chosen option.
Result: I

I: COc1ccccc1N1CCN(C(=O)C2CCN(c3nnc(-c4ccccc4)o3)CC2)CC1
II: O=C(C1CCCN(c2nccnc2Oc2ccccc2)C1)N1CCN(c2cccc(Cl)c2)CC1 (stereo not drawn)
Request: Lower RP-LC retention time: I or II ? Returns: label corresponding to the selected item.
Result: I
(I: 807 s, II: 1180 s)

a: CN(C)CCNC(=O)c1ncn2c1C(=O)N(C1CC1)C(C)(C(=O)NCc1ccc(F)cc1)C2 (stereo not drawn)
b: Cc1noc(-c2nc(Cc3cccc(F)c3)no2)n1
Request: Consider a and b . Which of these has its RP-LC retention time at a higher number? Record your answer as the label of the chosen record.
Result: b
